# Protocol text: Steady-state plasma pharmacokinetics
# Assay type: in vivo, human
# Test parameters: human, plasma, oral
Experimental endpoint: Tmax (h)
Just the number please, in h, no unit attached.

Noted for Cn1cc(C2=C(c3cn(C4CCN(Cc5ccccn5)CC4)c4ccccc34)C(=O)NC2=O)c2ccccc21 : its Tmax reads 4.04

* * *

# Protocol text: Steady-state plasma pharmacokinetics
# Assay type: in vivo, human
# Test parameters: human, plasma, oral, AUCτ,ss, enzastaurin 500 mg once daily with erlotinib 150 mg daily; geometric mean (CV%); N 12
Experimental endpoint: AUC (µM·h)
Reply with just the number (in µM·h).

Sample Cn1cc(C2=C(c3cn(C4CCN(Cc5ccccn5)CC4)c4ccccc34)C(=O)NC2=O)c2ccccc21 [Enzastaurin] ; AUC observed: 18

Hey, just so you know, these numbers are from paper PMC3313020.
